This collection of values is drawn from patent US20230242658A1.

Here the recorded pEC50 is given for each entry.
Target: T1, cynomolgus monkey 4-1BB on CHO-K1 cells (cynomolgus monkey)
T1 chain: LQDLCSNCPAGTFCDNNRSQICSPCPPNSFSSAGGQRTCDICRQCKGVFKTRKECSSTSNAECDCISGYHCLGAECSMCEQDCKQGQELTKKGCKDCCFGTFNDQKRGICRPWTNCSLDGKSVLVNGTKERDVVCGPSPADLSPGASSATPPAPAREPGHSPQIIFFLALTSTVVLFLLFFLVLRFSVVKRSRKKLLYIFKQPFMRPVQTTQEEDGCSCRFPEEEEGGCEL
Experiment: FACS; FIG. 12J
pEC50: −log10 of the molar value.
READOUT: pEC50

binder="PR007293 (antibody, V domains shown) VH: EVQLVESGGGLVKPGGSLRLSCAASGFTFSDYYMSWFRQAPGKGLEWVSYINSSGSTIYYEYSVKGRFTISRDNAKNSLYLQMNSLRAEDTAVYYCAREREEVAGTLDFDYWGQGTLVTVSS" readout=pEC50 recorded_result=8.68
binder="Utomilumab (antibody, V domains shown) VH: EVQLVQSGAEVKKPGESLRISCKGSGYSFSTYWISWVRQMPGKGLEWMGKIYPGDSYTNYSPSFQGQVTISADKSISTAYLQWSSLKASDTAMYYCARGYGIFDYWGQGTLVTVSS VL: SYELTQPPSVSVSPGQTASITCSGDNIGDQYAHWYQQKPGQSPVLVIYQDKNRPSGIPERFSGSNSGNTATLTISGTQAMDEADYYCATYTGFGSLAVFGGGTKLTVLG" readout=pEC50 recorded_result=9.36
binder="PR007294 (antibody, V domains shown) VH: EVQLVESGGGLVKPGGSLRLSCVASGFTFSDYYMSWFRQAPGKGLEWVSYISGSGTTIDYADSVKGRFTISRDNAKNSLYLQMNSLRAEDTAVYYCAREREPVAGTLDFDNWGQGTLVTVSS" readout=pEC50 recorded_result=8.70
binder="PR007292 (antibody, V domains shown) VH: EVQLVESGGGLVKPGGSLRLSCAASGFTFSDYYMSWIRQAPGKGLEWVSYISSSGSTIDYADSVKGRFTISRDNAKNSLYLQMNSLRAEDTAVYYCAREREEVAGTLDYDNWGQGTLVTVSS" readout=pEC50 recorded_result=8.31
